Measured CC50 at 48 h accompanies every entry in the list below.
assay: Cytotoxicity against African green monkey Vero cells after 48 hrs by MTT assay; format: cell-based; settings: chlorocebus sabaeus
Answer in µM, number only, no unit symbol.

What value of CC50 at 48 h has been recorded for this entry: `COC(=O)[C@]1(C)[C@@H](O)CC[C@]2(C)c3cc4c(cc3C(=O)C[C@@H]12)[nH]c1ccccc14`
98.7

Value lookup for CC50 at 48 h; key = `COC(=O)[C@]1(C)[C@@H](O)CC[C@]2(C)c3cc4c(cc3CC[C@@H]12)[nH]c1ccccc14`
103

---

experiment: Cytotoxicity against African green monkey Vero cells after 48 hrs by MTT assay; assay type: cell-based; conditions: chlorocebus sabaeus
Each record here notes measured CC50 at 48 h.
Only the number, expressed in µM, is required.

As a guide, the following entries are already answered.
- Molecule: "O=c1cnn([C@@H]2O[C@H](CO)[C@@H](O)[C@H]2O)c(=O)[nH]1 [6-AZAURIDINE]"
  Assay Value: 57.3
- Molecule: "C[C@@]1(C(=O)O)[C@@H](O)CC[C@]2(C)c3cc4c([nH]c5ccccc54)c(Cl)c3CC[C@@H]12"
  Assay Value: 162
- Molecule: "C[C@@]1(C(=O)O)[C@@H](O)CC[C@]2(C)c3cc4c(cc3CC[C@@H]12)[nH]c1ccccc14 [XIAMYCIN]"
  Assay Value: 138
- Molecule: "COC(=O)[C@]1(C)[C@@H](O)CC[C@]2(C)c3cc4c(cc3[C@@H](O)C[C@@H]12)[nH]c1ccccc14"
  Assay Value: 56

We now examine a further molecule.
Item under review: `C[C@@]1(C(=O)O)[C@@H](O)CC[C@]2(C)c3cc4c(cc3[C@@H](O)C[C@@H]12)[nH]c1ccccc14` . Reported CC50 at 48 h?
76.9

Source listed as ChEMBL document CHEMBL3785073.
